Test: Toxicity liver stage against HepG2, at 10uM
Assay type: cell-based
Set-up: test concentration 10 uM, cell line HepG2-A16-CD81EGFP
Conditions: human, HepG2-A16-CD81EGFP cells; read-out: INHIBITION
observable: cytotoxicity at 10 µM (%)
Your answer is read as %, so omit the unit and give the number.

Observe how each entry below is paired with its result.
CCc1nccn1C1CCCN(C(=O)Cc2n[nH]c3ccccc23)C1 (configuration not stated): -0.337
COc1cc(C)c(CNC(C)c2nc(C)cs2)cc1OC (configuration not stated): 2.58
Cc1ccc2c(c1)c(CNC(=O)C1CCN(C(C)C)CC1)nn2C: -14.8
CS(=O)(=O)NCC1CCCN(C(=O)COc2ccc(F)cc2)C1 (configuration not stated): -6.38
COC(=O)NCC(=O)N(C)CC1Cc2ccccc2CN1C (configuration not stated): -6.24
CCC(CN1CCCCC1)NC(=O)C1(c2ccc(F)cc2)CC1 (configuration not stated): 1.69
Cc1noc(C)c1-c1cnc(CC2CCN(C(=O)c3cc[nH]n3)C2)cn1 (configuration not stated): 3.6
COc1cccc2c1OCC(C(=O)N(Cc1ccncc1)CC(C)C)C2 (configuration not stated): -13.9
c1ccc2nc(N3CCOC(Cn4cccn4)C3)cnc2c1 (configuration not stated): -9.86
CC(NC(=O)NCc1cccc(CN2CCCC2)c1)c1nccs1 (configuration not stated): -7.43

Inquiry: Which cytotoxicity at 10 µM is listed for "COCCNc1cc(-c2ccccc2CCN)c2cc[nH]c2n1" ?
Reply text: 2.13

Inquiry: Another: "CCn1nc2c(cc1=O)CN(Cc1nc(-c3ccccn3)no1)CC2"
Reply text: -5.13

###

Experiment: Toxicity liver stage against HepG2, at 10uM
Assay type: cell-based
Design: test concentration 10 uM, cell line HepG2-A16-CD81EGFP
Settings: human, HepG2-A16-CD81EGFP cells; read-out: INHIBITION
observable: cytotoxicity at 10 µM (%)
Your answer should be a plain number; it is taken to be in %.

CCn1cc(CN2CCC(CN3CCCCC3)CC2)cc1C#N: -5.77

Inquiry: I am curious: what cytotoxicity at 10 µM value has been reported for "O=C(Nc1ccc2c(ccn2CCN2CCOCC2)c1)c1ccncc1" ?
Reply text: -2.9

Inquiry: Next record, please: "CCn1ccnc1CN1CCN(Cc2ccc(C#N)cc2)CC1"
Reply text: -9.62

Inquiry: Entry "O=C1N[C@H]2OCCC[C@H]2[C@H](c2ccc(C(=O)O)cc2)N1" please
Reply text: -2.51

Inquiry: Now the same for CN1CCN(c2ncc3c(c2C(=O)O)CCN(C2CCOC2)C3)CC1 (stereo unspecified)
Reply text: 6.96

Inquiry: Record: "CN(Cc1ccsc1)C(=O)Nc1ccc(N2CCCC2)nc1"
Reply text: -10.5

###

Quick reference for cytotoxicity at 10 µM among some molecules
Assay: Toxicity liver stage against HepG2, at 10uM
Format: cell-based
Design: test concentration 10 uM, cell line HepG2-A16-CD81EGFP
Details: human, HepG2-A16-CD81EGFP cells; read-out: INHIBITION
Numbers only; they are read as %.

NC(=O)C1CN(c2ccc(F)cc2)CCN1 (stereo unspecified): -4.98
CC(C)(C)c1cnc(CN2CCCS(=O)(=O)CC2)o1: -3.97
c1ccc(OCc2nnc3n2CCN(CC2CC2)C3)nc1: -0.945

Inquiry: Which cytotoxicity at 10 µM is listed for Cc1nc(NC(=O)C(C)n2ncc(Br)c2C)sc1C (stereo unspecified) ?
Reply text: 10.3

Inquiry: Another molecule to check: "O=C(CCNc1ccc(Cl)cn1)NCc1ccncc1"
Reply text: -2.31

Inquiry: O=C(c1n[nH]c2c1CN(C1CCOC1)CC2)N1CCOCC1 (stereo unspecified) ?
Reply text: 4.88

Inquiry: Field entry: "COCCNC(=O)CSc1nnc(OC(C)C)s1"
Reply text: -5.7

Inquiry: # iterate: Cc1ccc(N2CCCC(NCC(=O)Nc3cc(C)nn3C)C2)nn1 (stereo unspecified)
Reply text: -1.18

Inquiry: Same question, O=C(CCc1nc(-c2ccccn2)no1)N1CCCC1c1ccsc1 (stereo unspecified) this time
Reply text: -14.6

Inquiry: Same thing, different molecule: CC(C(=O)O)n1nc(C(F)(F)F)c(Cl)c1C1CC1 (stereo unspecified)
Reply text: 2.01

Inquiry: Then what about the molecule COC(=O)C1CCCCN1C(=O)c1ccc(N(C)C)cc1F (stereo unspecified) ?
Reply text: 5.97

Inquiry: Please do the same for "CCc1ncc2c(n1)CN(C(=O)Cc1cc(OC)cc(OC)c1)C2" as well.
Reply text: 2.78

Inquiry: Entry to check: "Cc1cccc(S(=O)(=O)N2C[C@@H]3OCCN(C(C)C)[C@@H]3C2)c1"
Reply text: 7.64

Inquiry: Can you handle COc1ccc(CN2CCCC3(CCN(c4ccsc4)C3=O)C2)cc1 (stereo unspecified) next?
Reply text: 6.92

Inquiry: Another molecule to look at: O=C(NCc1ccccc1-n1cccn1)N1CCN2CCCCC2C1 (stereo unspecified)
Reply text: -1.2

Inquiry: Can you check "Cc1c(F)cccc1CN1CCn2nc(CNC(=O)N(C)C)cc2C1" next?
Reply text: -19.4

Inquiry: Let us now turn to Cc1nc(C)c(C(=O)N2CCCC2c2nnc3n2CCCCC3)s1 (stereo unspecified)
Reply text: -2.62

Inquiry: Likewise for "COc1ccc2c(c1)OC1(CCN(Cc3ccccc3C)CC1)CC2=O" ?
Reply text: 6.52

###

Assay: Toxicity liver stage against HepG2, at 10uM
Type: cell-based
Set-up: test concentration 10 uM, cell line HepG2-A16-CD81EGFP
Conditions: human, HepG2-A16-CD81EGFP cells; read-out: INHIBITION
observable: cytotoxicity at 10 µM (%)
Please give a number only; it is taken to be in %.

Cc1cnc2c(c1NCc1cccnc1)c(=O)n(C)c(=O)n2C: -2.02
O=C(Nc1ncnc2c1CCC2)c1ccc2c(c1)OCO2: 4.42
CN1CC2(CCCN(Cc3cccc(Oc4ccccc4)c3)C2)OC1=O (stereo unspecified): 5.09
CCN(CC)C(=O)c1ccn(COc2ccccc2)n1: -0.911
COC(=O)c1cccc2nc([C@H]3CCN(Cc4ccccc4F)C3)oc12: -5.46

Please examine the following record next.
Inquiry: Endpoint output: cytotoxicity at 10 µM of "Cn1cccc1C(=O)N1CCN(CC2CC2)c2ncccc2C1" . Value?
Reply text: -21.9

###

Assay: Toxicity liver stage against HepG2, at 10uM
Type: cell-based
Set-up: test concentration 10 uM, cell line HepG2-A16-CD81EGFP
Conditions: human, HepG2-A16-CD81EGFP cells; read-out: INHIBITION
Measured cytotoxicity at 10 µM values are reported for all entries that follow.
Unit % implied. Number only.

Solved entries (count: 5):
CN(Cc1noc(C2CC2)n1)C1CCN(Cc2cccc(F)c2F)C1 (configuration not stated): -13
CNc1cc(C2CCN2c2ncccn2)nc(C)n1 (configuration not stated): 1.72
Cc1nn(C)c2ncc(CNCCc3ccccn3)cc12: 4.13
O=C(c1cnc(C2CC2)s1)N1CCCC1Cn1cccn1 (configuration not stated): -5.09
CC(C)N(C)CC(=O)NC1CCc2nccn2C1 (configuration not stated): 17.8

Inquiry: So what's the measured cytotoxicity at 10 µM for this one? O=C(Cc1ccccc1F)NCC1CCN(CCc2ccccc2)C1 (configuration not stated)
Reply text: -43.5

Inquiry: Input "Cn1nc(-c2ccccc2NC(=O)c2cncc(Br)c2)ccc1=O"
Reply text: 0.461

Inquiry: Please give the result for CS(=O)(=O)N1CC2(CCN(C3CCCCC3)C2)Cc2ccccc21 (configuration not stated) too.
Reply text: 3.38

Inquiry: Same question for "COc1ccc2c(c1)nc1n2[C@@H](CNC(=O)c2cccnc2)COC1" please.
Reply text: -3.74

Inquiry: Ok, now "CC(=O)c1cccc(NC(=O)Cn2cnc(-c3ccccc3)cc2=O)c1"
Reply text: -12.3

Inquiry: For "CC(C)(C)c1ccc(OCc2nc3c(c(=O)[nH]2)CCNC3)cc1" then?
Reply text: 5.11

Inquiry: Next entry: Cc1nnc2n1CCN(C(=O)CN1C(=O)C(C)Oc3ccccc31)C2 (configuration not stated)
Reply text: -0.905

###

Quick list: cytotoxicity at 10 µM per entry.
Experiment: Toxicity liver stage against HepG2, at 10uM
Type: cell-based
Parameters: test concentration 10 uM, cell line HepG2-A16-CD81EGFP
Details: human, HepG2-A16-CD81EGFP cells; read-out: INHIBITION
Only the number, expressed in %, is required.

Cc1nc(N(C)Cc2cccc(O)c2)nc2cc(S(C)(=O)=O)ccc12: -2.54
CC(C)C(C(=O)N1CCC(Nc2cccnn2)CC1)n1cncn1 (configuration not stated): -4.35
CC1CCN(CCCNC(=O)C2CCCCC2)CC1: -2.63

Inquiry: Quick one: cytotoxicity at 10 µM for "CC(C)c1ncc2c(n1)CN(c1ncnc3[nH]ccc13)CC2" ?
Reply text: -3.28

Inquiry: Follow-up item: "Cc1cc(-c2cc(-c3cc(CC(=O)O)cs3)nc(N)c2C#N)oc1C"
Reply text: -6.25

Inquiry: Another compound to look at: CC(NC(=O)NCCCO)c1ccc2c(c1)NC(=O)CO2 (configuration not stated)
Reply text: -3.05
